- Test system: NCI-H226 lung
- assay.info: NCI tumour cell line growth inhibition, 48 h
TGI overview

Below are worked cases with known answers.
TGI lookup needed for `CCOc1cc(F)c([N+](=O)[O-])cc1[N+](=O)[O-]` , thanks.
8.48 µM

TGI lookup needed for `OCCCC(O)(c1ccccc1)c1ccccc1` , thanks.
> 100 µM

TGI lookup needed for `CCOC(=O)C(COS(C)(=O)=O)(COS(C)(=O)=O)C(=O)OCC` , thanks.
> 100 µM

TGI lookup needed for `O=C1Nc2ccccc2/C1=C\c1c(-c2ccccc2)nc2ccccn12` , thanks.
57.8 µM

TGI lookup needed for COc1cc(C2C3=C(COC3=O)N(CCO)c3cc4c(cc32)OCO4)cc(OC)c1OC (stereo not given) , thanks.
> 16.8 µM

Further cases:
TGI lookup needed for `O=c1[nH]nc(-c2ccccc2)n1/N=C\CC/C=N\n1c(-c2ccccc2)n[nH]c1=O` , thanks.
> 72.2 µM

TGI lookup needed for CCOC(=O)C1=C(C)NC(=O)NC1c1ccc(N(CCCl)CCCl)cc1Cl (stereo not given) , thanks.
28.8 µM

TGI lookup needed for CC(C)(C)COC1C2(OCCO2)C2CCC1(C)C2(C)C (stereo not given) , thanks.
> 100 µM
